- assay_procedure: Determination of the microsomal half-life, human liver microsomes
- conditions: human, liver microsomes, pH 7.4
Where a name gives a salt, the structure may show the parent alone.
This section presents compounds with their documented microsomal CLint at 0.5 μM values.

• COc1ccc(-c2cccc3c2C(=O)N(CCc2cn4ccccc4n2)C3)cc1 [Example 237] = 100 to 220 µL/min/mg
• Cn1nccc1-c1ccnc2c1CN(CCc1ccc3ccccc3n1)C2=O [compound 459, trifluoroacetate] = < 100 µL/min/mg

# evaluate next
Data request: Dear colleague, I am looking for the recorded microsomal CLint at 0.5 μM of the following compound: O=C1c2c(cncc2-c2ccncc2)CN1CCc1ccc2ccccc2n1 [Example 2]
Data returned: 100 to 220 µL/min/mg
